Experimental System: human Nav1.7 (Homo sapiens (Human), UniProt Q15858)
Sequence (Q15858 whole entry): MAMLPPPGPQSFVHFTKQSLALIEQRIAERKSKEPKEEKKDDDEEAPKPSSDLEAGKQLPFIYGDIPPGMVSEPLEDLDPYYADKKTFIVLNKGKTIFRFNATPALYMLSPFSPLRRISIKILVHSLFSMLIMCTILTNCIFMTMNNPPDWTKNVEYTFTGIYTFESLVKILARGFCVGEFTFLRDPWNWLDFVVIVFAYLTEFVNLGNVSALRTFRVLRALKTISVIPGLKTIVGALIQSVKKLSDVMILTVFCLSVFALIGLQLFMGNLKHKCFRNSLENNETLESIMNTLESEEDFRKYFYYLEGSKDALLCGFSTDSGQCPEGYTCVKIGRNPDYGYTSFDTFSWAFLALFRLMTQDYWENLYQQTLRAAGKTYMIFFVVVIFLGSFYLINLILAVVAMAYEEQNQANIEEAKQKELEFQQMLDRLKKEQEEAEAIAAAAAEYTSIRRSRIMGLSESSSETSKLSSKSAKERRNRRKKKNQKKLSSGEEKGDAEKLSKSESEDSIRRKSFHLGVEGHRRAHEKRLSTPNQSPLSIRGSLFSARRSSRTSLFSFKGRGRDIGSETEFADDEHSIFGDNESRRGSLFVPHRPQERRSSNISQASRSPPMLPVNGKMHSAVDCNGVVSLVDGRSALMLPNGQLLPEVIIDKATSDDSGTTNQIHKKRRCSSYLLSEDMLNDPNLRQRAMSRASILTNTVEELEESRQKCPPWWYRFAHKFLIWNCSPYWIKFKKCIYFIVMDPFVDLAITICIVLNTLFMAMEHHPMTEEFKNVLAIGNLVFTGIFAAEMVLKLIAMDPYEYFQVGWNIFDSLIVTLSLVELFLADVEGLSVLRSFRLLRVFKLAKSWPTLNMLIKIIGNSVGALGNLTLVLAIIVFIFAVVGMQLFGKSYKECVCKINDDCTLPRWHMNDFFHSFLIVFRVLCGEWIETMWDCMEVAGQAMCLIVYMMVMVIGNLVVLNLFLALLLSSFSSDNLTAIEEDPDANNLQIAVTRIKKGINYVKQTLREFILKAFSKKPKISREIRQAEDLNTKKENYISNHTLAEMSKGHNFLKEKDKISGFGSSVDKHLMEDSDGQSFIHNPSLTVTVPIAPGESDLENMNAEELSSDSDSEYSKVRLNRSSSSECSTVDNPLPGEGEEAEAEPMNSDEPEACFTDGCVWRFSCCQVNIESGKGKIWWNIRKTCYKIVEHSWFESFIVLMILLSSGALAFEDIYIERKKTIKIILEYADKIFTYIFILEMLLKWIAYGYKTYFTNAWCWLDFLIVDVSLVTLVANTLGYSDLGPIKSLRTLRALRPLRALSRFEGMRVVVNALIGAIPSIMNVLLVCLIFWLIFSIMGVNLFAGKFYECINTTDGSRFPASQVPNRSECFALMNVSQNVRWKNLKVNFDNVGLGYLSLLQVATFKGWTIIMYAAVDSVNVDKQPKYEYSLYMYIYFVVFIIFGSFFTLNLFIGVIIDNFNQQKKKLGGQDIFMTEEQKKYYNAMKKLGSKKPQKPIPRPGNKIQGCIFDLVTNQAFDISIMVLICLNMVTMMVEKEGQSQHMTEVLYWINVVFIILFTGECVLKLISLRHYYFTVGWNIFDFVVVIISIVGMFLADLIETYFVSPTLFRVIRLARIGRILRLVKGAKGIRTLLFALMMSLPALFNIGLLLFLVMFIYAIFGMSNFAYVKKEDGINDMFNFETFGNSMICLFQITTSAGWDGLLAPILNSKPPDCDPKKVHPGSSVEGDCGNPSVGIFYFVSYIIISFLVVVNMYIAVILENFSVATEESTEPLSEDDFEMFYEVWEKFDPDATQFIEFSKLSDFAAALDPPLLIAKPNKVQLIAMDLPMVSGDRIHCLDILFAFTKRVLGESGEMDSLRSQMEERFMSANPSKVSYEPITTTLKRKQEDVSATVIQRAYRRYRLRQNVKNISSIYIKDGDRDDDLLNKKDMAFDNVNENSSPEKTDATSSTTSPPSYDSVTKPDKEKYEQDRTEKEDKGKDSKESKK
Sequence (Q07699 19-218 partner): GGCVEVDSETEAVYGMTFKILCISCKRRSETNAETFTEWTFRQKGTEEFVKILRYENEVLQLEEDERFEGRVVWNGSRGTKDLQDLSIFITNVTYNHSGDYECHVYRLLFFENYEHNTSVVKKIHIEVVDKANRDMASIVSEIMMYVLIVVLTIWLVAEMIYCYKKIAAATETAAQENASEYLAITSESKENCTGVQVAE
Assay Notes: Human Nav1.7 inhibitory activity evaluation (automated patch clamp QPatch16X, HEK293A cells stably expressing human Nav1.7 and human Navβ1)
Format: cell-based
Reported Conditions: human Nav1.7, automated patch clamp
pIC50: −log10 of the molar value.
Consider the following compounds; for each one, report its pIC50.

// query # query: pIC50 | item "COc1cccc(CN2CCn3nc(C(=O)N[C@H]4COc5ccc(Cl)cc5C4)cc3C2)n1" | system: human Nav1.7 (Homo sapiens (Human), UniProt Q15858)
// result > 6.00

// query Enter reported pIC50 observed with human Nav1.7 (Homo sapiens (Human), UniProt Q15858) for O=C(N[C@H]1COc2ccc(C(F)(F)F)cc2C1F)c1cc2n(n1)CCN(CCC(F)(F)F)C2 (some centres unmarked)
// result > 6.00

// query Hello, I am looking for reported pIC50 with human Nav1.7 (Homo sapiens (Human), UniProt Q15858) for N#Cc1ccc2c(c1)C[C@@H](NC(=O)c1cc3n(n1)CCC(CCOC(F)F)O3)CO2 (single isomer, unassigned) [146 (isomer A)] . Could you help?
// result > 5.00

// query Query pIC50 on human Nav1.7 (Homo sapiens (Human), UniProt Q15858) for O=C(NC1COc2ccc(C(F)(F)F)cc2C1)c1cc2n(n1)CCN(CCC1CC1)C2 (centres unmarked)
// result > 6.00

// query What pIC50 appears in the records for this compound with human Nav1.7 (Homo sapiens (Human), UniProt Q15858)? O=C(N[C@H]1COc2ccc(C3CC3)cc2C1)c1cc2n(n1)CCC(C(F)F)O2 (some centres unmarked)
// result > 6.00

// query Requested read-out pIC50, target or system human Nav1.7 (Homo sapiens (Human), UniProt Q15858), entry O=C(NC1COc2ccccc2C1)c1cc2n(n1)CCN(S(=O)(=O)c1ccccc1C(F)(F)F)C2 (centres unmarked)
// result > 5.00

// query Under human Nav1.7 (Homo sapiens (Human), UniProt Q15858): pIC50 value of "O=C(N[C@H]1COc2ccc(C(F)(F)F)cc2C1)c1nn2c(c1-c1ccn[nH]1)COCC2" ?
// result > 6.00

// query Hello, I am looking for reported pIC50 with human Nav1.7 (Homo sapiens (Human), UniProt Q15858) for O=C(N[C@H]1COc2ccc(CC(F)F)cc2C1)c1cc2n(n1)CCC(COCC(F)(F)F)CO2 (some centres unmarked) [Example 557] . Could you help?
// result > 6.00

// query Lab note: need pIC50 with human Nav1.7 (Homo sapiens (Human), UniProt Q15858) for entry O=C(N[C@H]1COc2ccc(C(F)(F)F)cc2C1O)c1cc2n(n1)CC(CCCOCC(F)F)O2 (single isomer, unassigned) [608 (isomer B)] , please look it up.
// result > 6.00

// query Observed pIC50 on human Nav1.7 (Homo sapiens (Human), UniProt Q15858) for O=C(N[C@H]1COc2ccc(C(F)(F)F)cc2C1O)c1cc2n(n1)CC(CCOCC(F)(F)F)O2 (single isomer, unassigned) [600 (isomer B)] , please.
// result > 6.00

// query human Nav1.7 (Homo sapiens (Human), UniProt Q15858) / pIC50 / "O=C(N[C@H]1COc2ccc(C(F)(F)F)cc2C1)c1nn2c(c1-c1cccc(F)n1)COCC2" : value?
// result > 6.00

// query Form entry - test system: human Nav1.7 (Homo sapiens (Human), UniProt Q15858); read-out: pIC50; compound: O=C(NC1COc2ccccc2C1)c1nn2c(c1-c1ccccc1)CCCC2 (centres unmarked)
// result > 5.00

// query GET /values?readout=pIC50&system=human Nav1.7 (Homo sapiens (Human), UniProt Q15858)&item= "O=C(N[C@H]1COc2ccc(C(F)(F)F)cc2C1)c1nn2c(c1-c1ccc3cccnc3c1)COCC2"
// result > 5.00

// query Query the reported pIC50 for human Nav1.7 (Homo sapiens (Human), UniProt Q15858); item: O=C(N[C@H]1COc2ccc(COc3ccccn3)cc2C1)c1cc2n(n1)CCC(C(F)(F)F)O2 (some centres unmarked)
// result > 6.00

// query Test system human Nav1.7 (Homo sapiens (Human), UniProt Q15858); read-out pIC50; what value for N#Cc1ccc2c(c1)C[C@@H](NC(=O)c1cc3n(n1)CCC(C(F)(F)F)O3)CO2 (some centres unmarked) [Example 374] ?
// result > 6.00

// query human Nav1.7 (Homo sapiens (Human), UniProt Q15858) / pIC50 / O=C(c1cn2c(n1)CCC(c1cccnc1C(F)(F)F)C2)N1CCCC1c1ccccc1 (centres unmarked) : value?
// result > 5.00

// query Which measured pIC50 belongs to "O=C(N[C@H]1COc2ccc(Cl)cc2C1)c1cc2n(n1)CCC1(CCOCC1)O2" , tested on human Nav1.7 (Homo sapiens (Human), UniProt Q15858)?
// result > 5.00

// query Please provide the recorded pIC50 for O=C(N[C@H]1COc2ccc(Cl)cc2C1)c1cc2n(n1)CCC(C1CCOC1)O2 (some centres unmarked) , tested on human Nav1.7 (Homo sapiens (Human), UniProt Q15858).
// result > 6.00

// query Recall the recorded pIC50 for O=C(N[C@H]1COc2ccc(CC(F)F)cc2C1)c1cc2n(n1)CCC(COC1CCC1)O2 (some centres unmarked) with human Nav1.7 (Homo sapiens (Human), UniProt Q15858) and state it.
// result > 6.00

// query For human Nav1.7 (Homo sapiens (Human), UniProt Q15858), provide pIC50 of N#Cc1ccc2c(c1)C[C@@H](NC(=O)c1cc3n(n1)CC(COc1ccccn1)O3)CO2 (some centres unmarked) please.
// result > 5.00

// query Provide the documented pIC50 with human Nav1.7 (Homo sapiens (Human), UniProt Q15858) as the system for O=C(N[C@H]1COc2ccc(CC(F)F)cc2C1)c1cc2n(n1)CC(CCOC1CCC1)O2 (some centres unmarked)
// result > 6.00

// query Please provide the recorded pIC50 for O=C(NC1COc2ccc(Cl)cc2C1)c1cc2n(n1)CCC(c1ccccc1)O2 (centres unmarked) , tested on human Nav1.7 (Homo sapiens (Human), UniProt Q15858).
// result > 6.00

// query Lookup: pIC50 / human Nav1.7 (Homo sapiens (Human), UniProt Q15858) / N#Cc1ccc2c(c1)C[C@@H](NC(=O)c1cc3n(n1)CCC(COCC1(F)CC1)O3)CO2 (mixture of isomers) [Example 532]
// result > 5.00

// query Which pIC50 is reported with human Nav1.7 (Homo sapiens (Human), UniProt Q15858) for this entry: O=C(N[C@H]1COc2ccc(C(F)(F)F)cc2C1O)c1cc2n(n1)CC(CSCC(F)(F)F)O2 (single isomer, unassigned) [641 (isomer A)] ?
// result > 5.00

// query Report pIC50 for O=C(N[C@H]1COc2ccc(CN3CCOCC3)cc2C1)c1cc2n(n1)CCC(c1ccccc1F)O2 (some centres unmarked) tested on human Nav1.7 (Homo sapiens (Human), UniProt Q15858).
// result > 5.00

// query Form: Entry = O=C(N[C@H]1COc2ccc(COCC(F)(F)F)cc2C1)c1cc2n(n1)CC(CCOC(F)F)O2 (single isomer, unassigned) [215 (isomer A)] | System = human Nav1.7 (Homo sapiens (Human), UniProt Q15858) | pIC50 = ____
// result > 6.00

// query Missing value: pIC50, human Nav1.7 (Homo sapiens (Human), UniProt Q15858), entry N#Cc1ccc2c(c1)C[C@@H](NC(=O)c1cc3n(n1)CC(CCCOC(F)F)O3)CO2 (single isomer, unassigned) [248 (isomer A)] . Fill in?
// result > 6.00

// query Return pIC50 measured with human Nav1.7 (Homo sapiens (Human), UniProt Q15858) given this compound: O=C(N[C@H]1COc2ccc(C(F)(F)F)cc2C1F)c1cc2n(n1)CC(COCCOCC(F)(F)F)O2 (some centres unmarked)
// result > 6.00

// query Please tell me: pIC50 of "O=C(N[C@H]1COc2ccc(C(F)(F)F)cc2C1)c1cc2n(n1)CCN(CCC(F)(F)F)C2" , system human Nav1.7 (Homo sapiens (Human), UniProt Q15858)?
// result > 6.00

The reported measurements were obtained from patent US12421225B2.
